Origin of measurements: PubChem BioAssay (EPA / NIEHS)

- PROCEDURE SUMMARY: ATG_CRE_CIS: Attagene CIS-FACTORIAL HepG2 Assay for human cAMP Responsive Element (CRE) binding protein 3 (AID 2282926)
- EXPERIMENTAL CONDITIONS: HepG2 CRE cis-reporter, Attagene multiplexed mRNA; actives raise or lower the signal
Active and inactive are the calls of the source. The calls were made as follows: active = hit-call score of the fitted dose curve at least 0.9, where 1 is the maximum; inactive = score below 0.9.
Assign a class; possible classes are true (active), false (inactive)

COc1cc(OC)nc(NC(=O)NS(=O)(=O)c2ncccc2C(=O)N(C)C)n1    false

Then this molecule:
Test call, this molecule: `[O-][Cl+2]([O-])O`
false

---

- Read-out: C-C motif chemokine 2 (Homo sapiens)
- PROCEDURE SUMMARY: BSK_KF3CT_MCP1: BioMAP Diversity Plus: KF3CT Assay for Monocyte Chemoattractant Protein 1 (MCP1/CCL2) Biomarker Activity (AID 2283073)
- EXPERIMENTAL CONDITIONS: primary human keratinocytes with fibroblasts; actives raise or lower the signal
The source made the active and inactive calls. How the source made its calls: active means hit-call score of the fitted dose curve at least 0.9, where 1 is the maximum; inactive means score below 0.9.
Assign a class; possible classes are active, inactive

O=c1[nH]c(=O)[nH]c(=O)[nH]1    inactive
CCN1CCC2(CC1)COc1cc3c(cc12)N(C(=O)c1ccc(-c2ccc(-c4nnc(C)o4)cc2C)cc1)CC3    active
CN(C)N=O    inactive
COP(=S)(OC)Oc1ccc(S(=O)(=O)N(C)C)cc1    inactive

Test call, this compound: `COP(=S)(OC)Oc1c(Cl)cc(C)cc1Cl`
inactive

Test call, this compound: `ClC1=C(Cl)[C@]2(Cl)[C@H]3[C@H]([C@H]4C=C[C@H]3C4)[C@@]1(Cl)C2(Cl)Cl`
inactive

---

- ASSAY SYSTEM: Bile acid receptor (Homo sapiens)
- PROCEDURE SUMMARY: OT_FXR_FXRSRC1_0480: Odyssey Thera (OT) 8-hour HEK293T Protein-Complementation Assay for Farnesoid X receptor/SRC-1 Co-activator (AID 2283383)
Records with an inconclusive call do not appear. Activity calls are given as the source filed them. How the source made its calls: active means hit-call score of the fitted dose curve at least 0.9, where 1 is the maximum; inconclusive means response in the unintended direction; inactive means score below 0.9.
Assign a class; possible classes are Yes = active, No = inactive

Test call, this compound: `O=C(O)C(F)(F)C(F)(F)C(F)(F)C(F)(F)C(F)(F)C(F)(F)C(F)(F)C(F)(F)C(F)(F)C(F)(F)F`
No

Test call, this compound: `O=C(OC1CCCCC1)c1ccccc1C(=O)OC1CCCCC1`
Yes

Test call, this compound: `[O-][Cl+2]([O-])O`
No

---

- Read-out: Lipoprotein lipase (LPL), LPL (gene 4023)
- PROCEDURE SUMMARY: LTEA_HepaRG_LPL: Life Technologies and Expression Analysis (LTEA) Assay for Lipoprotein lipase (LPL) using HepaRG (AID 2283515)
- EXPERIMENTAL CONDITIONS: mRNA level, 48 h; actives raise or lower the signal
Calls of active or inactive are those of the source. How the source made its calls: active means hit-call score of the fitted dose curve at least 0.9, where 1 is the maximum; inactive means score below 0.9.
Assign a class; possible classes are active, inactive

CCOP(=S)(OCC)Oc1nc(Cl)c(Cl)cc1Cl    inactive
NC(=O)O    inactive
C=CC(=O)OCCCCCC(C)C    inactive

Then this molecule:
Test call, this molecule: `C[C@]12CCC(=O)C[C@@H]1CC[C@@H]1[C@@H]2CC[C@]2(C)[C@@H](O)CC[C@@H]12`
inactive

---

- ASSAY SYSTEM: PGR (gene 5241) (UniProt P06401)
- Sequence (P06401 whole entry, looked up): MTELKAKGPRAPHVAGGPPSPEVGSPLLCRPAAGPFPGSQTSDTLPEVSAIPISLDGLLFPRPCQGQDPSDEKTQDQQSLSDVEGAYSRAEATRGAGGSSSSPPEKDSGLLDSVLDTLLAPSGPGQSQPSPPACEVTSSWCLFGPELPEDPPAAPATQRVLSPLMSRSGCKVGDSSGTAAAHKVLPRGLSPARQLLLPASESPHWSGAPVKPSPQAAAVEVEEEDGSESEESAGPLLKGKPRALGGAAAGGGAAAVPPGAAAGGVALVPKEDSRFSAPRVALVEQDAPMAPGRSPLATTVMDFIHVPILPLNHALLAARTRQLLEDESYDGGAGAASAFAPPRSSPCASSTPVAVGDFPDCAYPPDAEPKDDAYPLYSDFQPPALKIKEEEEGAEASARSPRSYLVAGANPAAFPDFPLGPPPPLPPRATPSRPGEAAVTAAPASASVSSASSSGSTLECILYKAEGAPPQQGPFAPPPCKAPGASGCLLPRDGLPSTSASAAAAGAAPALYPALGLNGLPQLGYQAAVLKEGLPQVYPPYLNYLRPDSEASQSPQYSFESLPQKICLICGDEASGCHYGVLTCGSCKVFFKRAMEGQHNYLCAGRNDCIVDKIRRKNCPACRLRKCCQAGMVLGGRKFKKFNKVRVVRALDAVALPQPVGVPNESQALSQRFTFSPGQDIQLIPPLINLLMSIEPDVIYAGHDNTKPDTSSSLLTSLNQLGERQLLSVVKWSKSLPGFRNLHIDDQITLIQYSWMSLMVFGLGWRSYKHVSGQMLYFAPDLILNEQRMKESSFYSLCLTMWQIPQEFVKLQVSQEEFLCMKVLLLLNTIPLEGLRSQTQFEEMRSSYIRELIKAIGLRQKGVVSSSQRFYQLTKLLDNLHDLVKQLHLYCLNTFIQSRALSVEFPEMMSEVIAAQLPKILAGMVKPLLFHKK
- PROCEDURE SUMMARY: NVS_NR_hPR: NovaScreen (NVS) Nuclear Receptor Binding Assay for human Progestron Receptor (PR) (AID 2283360);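 also: active means loss of bound radioligand signal versus DMSO baseline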
Records with an inconclusive call do not appear. Active and inactive are the calls of the source. The calls were made as follows: active = hit-call score of the fitted dose curve at least 0.9, where 1 is the maximum; inconclusive = response in the unintended direction; inactive = score below 0.9.
Assign a class; possible classes are T (active), F (inactive)

A selection of reference data follows.
C=C(C)C(=O)[O][Sn]([CH2]CCC)([CH2]CCC)[CH2]CCC    T
C=CC(=O)N(C)C    F
Nc1cccc2ccccc12    F

Then this molecule:
Test call, this molecule: `COC[C@H](C)N(C(=O)CCl)c1c(C)csc1C`
T

---

- Read-out: Actin alpha 1 (ACTA1), ACTA1 (gene 58)
- PROCEDURE SUMMARY: BSK_MyoF_ACTA1: BioMAP Diversity Plus: MyoF Assay for Actin alpha 1 (ACTA1) Biomarker Activity (AID 2284244)
- EXPERIMENTAL CONDITIONS: primary human lung fibroblasts
- Procedure: BSK_MyoF is a cell-based, multiplexed-readout assay that uses lung fibroblasts, […], with measurements taken at 24 hours after chemical dosing in a microplate: 96-well plate.BSK_MyoF_ACTA1 is an assay component measured in the BSK_MyoF assay. […] The levels of cell surface (or secreted, indicated by the prefix "s") biomarker endpoints were measured by ELISA. […] Plates were read after 6 h.
Active and inactive are the calls of the source. Rule for the calls: active = hit-call score of the fitted dose curve at least 0.9, where 1 is the maximum; inactive = score below 0.9.
TEST READOUT: outcome

CCOP(=S)(OCC)Oc1ccc(S(C)=O)cc1 (centres undefined)    inactive
O=[N+]([O-])c1ccc2c3c(cccc13)CC2    inactive
COP(=S)(OC)Oc1c(Cl)cc(C)cc1Cl    inactive
O=S(=O)(c1ccc(Cl)cc1)c1ccc(Cl)cc1    inactive

---

- ASSAY SYSTEM: Transcription factor E2F1 (Homo sapiens)
- PROCEDURE SUMMARY: ATG_E2F_CIS: Attagene CIS-FACTORIAL HepG2 Assay for human E2F Transcription Factor 1 (AID 2282935)
- EXPERIMENTAL CONDITIONS: HepG2 Attagene cis-reporter, E2F reporter RNA transcripts; actives raise or lower the signal
Active and inactive are the calls of the source. How the source made its calls: active means hit-call score of the fitted dose curve at least 0.9, where 1 is the maximum; inactive means score below 0.9.
Assign a class; possible classes are active, inactive

CCOC(=O)/C=C(C)/C=C/C[C@@H](C)CCCC(C)C    active
COP(=O)(OC)O/C(=C\Cl)c1cc(Cl)c(Cl)cc1Cl    inactive
Cc1ccccc1C(=O)Nc1cccc(OC(C)C)c1    inactive
ClCC(Cl)CCl    inactive
CCOP(=O)(CN(CCO)CCO)OCC    inactive

Test call, this molecule: `O=C1CCCN1`
inactive

Test call, this molecule: `Cc1ccc2ccccc2c1C`
inactive

Test call, this molecule: `C=C(C)C#N`
inactive

Test call, this molecule: `CCOP(=S)(OCC)Oc1nc(Cl)c(Cl)cc1Cl`
active

Test call, this molecule: `BrCCBr`
inactive

Test call, this molecule: `Cl/C=C\C[N+]12CN3CN(CN(C3)C1)C2`
inactive

Test call, this molecule: `CC(C)CCCCCCOC(=O)c1ccccc1C(=O)OCCCCCCC(C)C`
inactive

Test call, this molecule: `O=[N+]([O-])c1ccc2c3c(cccc13)CC2`
inactive

Test call, this molecule: `O=[N+]([O-])c1c(Cl)c(Cl)cc(Cl)c1Cl`
inactive

---

- PROCEDURE SUMMARY: ATG_EGR_CIS: Attagene CIS-FACTORIAL HepG2 Assay for human Early Growth Response 1 (EGR1) (AID 2282938)
- EXPERIMENTAL CONDITIONS: HepG2 Attagene CIS-FACTORIAL EGR reporter mRNA; actives raise or lower the signal
Activity calls are given as the source filed them. Rule for the calls: active = hit-call score of the fitted dose curve at least 0.9, where 1 is the maximum; inactive = score below 0.9.
Assign a class; possible classes are Y (active), N (inactive)

A selection of reference data follows.
ClC1=C(Cl)[C@]2(Cl)[C@H]3[C@H]([C@H]4C=C[C@H]3C4)[C@@]1(Cl)C2(Cl)Cl    N
CC(C)(c1ccccc1)c1ccc(O)c(C(C)(C)c2ccccc2)c1    Y
Cc1ccc2ccccc2c1C    N
C1CCC(NC2CCCCC2)CC1    N
Nc1ncc([N+](=O)[O-])s1    N
COc1ccc(C=O)cc1OC    N
[O-][Cl+2]([O-])O    N
CCC(=O)c1ccccc1    N

Then this compound:
Test call, this compound: `Cl/C=C/Cl`
N

---

- Read-out: growth arrest and DNA damage 45 (GADD45G), GADD45G (gene 10912)
- PROCEDURE SUMMARY: LTEA_HepaRG_GADD45G: Life Technologies and Expression Analysis (LTEA) Assay for growth arrest and DNA damage 45 (GADD45G) using HepaRG (AID 2283499)
- EXPERIMENTAL CONDITIONS: mRNA level, 48 h; actives raise or lower the signal
Active and inactive are the calls of the source. Rule for the calls: active = hit-call score of the fitted dose curve at least 0.9, where 1 is the maximum; inactive = score below 0.9.
TEST READOUT: AC50

O=C(O)C(Cl)(Cl)Cl    inactive
CCC(=O)C(CC(C)N(C)C)(c1ccccc1)c1ccccc1 (stereo not drawn)    inactive
CC(C)(c1ccccc1)c1ccc(O)c(C(C)(C)c2ccccc2)c1    inactive
CCCCCCCCc1ccc(O)cc1    inactive
ClCC(Cl)CCl    inactive
CCN1CCC2(CC1)COc1cc3c(cc12)N(C(=O)c1ccc(-c2ccc(-c4nnc(C)o4)cc2C)cc1)CC3    74 µM (active)
O=[N+]([O-])c1ccc(O)c([N+](=O)[O-])c1    90.6 µM (active)
CC(C)(C)c1cc(O)ccc1O    inactive
COc1cc(-c2ccc(N)c(OC)c2)ccc1N    inactive
O=C(O)C(F)(F)C(F)(F)C(F)(F)C(F)(F)C(F)(F)C(F)(F)C(F)(F)C(F)(F)C(F)(F)C(F)(F)F    inactive

Tell me measured AC50 for `Cc1ccccc1N` please.
inactive

Tell me measured AC50 for `NC(=O)O` please.
inactive

Tell me measured AC50 for `Cn1sc(Cl)cc1=O` please.
inactive
